Entry source: ChEMBL document CHEMBL3351286

For each record, write down the corresponding IC50.
target: Integrin alpha-5/beta-1 (Homo sapiens, UniProt P05556+P08648); test: Antagonist activity at alpha5beta1 integrin receptor (unknown origin) by cell-based ELISA
Sequence (P05556 21-798 limits assumed): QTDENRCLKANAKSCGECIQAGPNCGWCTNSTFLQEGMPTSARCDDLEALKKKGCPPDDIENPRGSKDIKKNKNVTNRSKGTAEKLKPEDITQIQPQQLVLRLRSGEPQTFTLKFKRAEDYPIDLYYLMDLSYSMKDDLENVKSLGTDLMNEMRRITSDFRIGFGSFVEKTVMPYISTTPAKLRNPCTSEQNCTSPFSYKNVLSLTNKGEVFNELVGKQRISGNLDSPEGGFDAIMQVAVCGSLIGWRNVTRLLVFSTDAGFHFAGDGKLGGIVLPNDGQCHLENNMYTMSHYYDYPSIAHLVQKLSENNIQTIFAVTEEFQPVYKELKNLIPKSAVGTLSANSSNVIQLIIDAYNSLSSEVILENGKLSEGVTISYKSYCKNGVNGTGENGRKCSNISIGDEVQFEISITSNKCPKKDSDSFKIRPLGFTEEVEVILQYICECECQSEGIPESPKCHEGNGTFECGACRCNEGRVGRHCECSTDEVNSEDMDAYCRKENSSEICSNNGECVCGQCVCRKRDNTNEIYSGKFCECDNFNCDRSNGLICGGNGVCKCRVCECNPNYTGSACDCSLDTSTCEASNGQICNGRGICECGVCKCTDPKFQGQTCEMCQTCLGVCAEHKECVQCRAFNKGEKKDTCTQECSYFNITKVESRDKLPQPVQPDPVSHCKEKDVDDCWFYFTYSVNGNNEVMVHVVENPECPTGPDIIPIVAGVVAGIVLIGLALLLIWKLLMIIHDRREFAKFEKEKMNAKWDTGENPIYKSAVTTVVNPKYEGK
Sequence (P08648 42-894 limits assumed): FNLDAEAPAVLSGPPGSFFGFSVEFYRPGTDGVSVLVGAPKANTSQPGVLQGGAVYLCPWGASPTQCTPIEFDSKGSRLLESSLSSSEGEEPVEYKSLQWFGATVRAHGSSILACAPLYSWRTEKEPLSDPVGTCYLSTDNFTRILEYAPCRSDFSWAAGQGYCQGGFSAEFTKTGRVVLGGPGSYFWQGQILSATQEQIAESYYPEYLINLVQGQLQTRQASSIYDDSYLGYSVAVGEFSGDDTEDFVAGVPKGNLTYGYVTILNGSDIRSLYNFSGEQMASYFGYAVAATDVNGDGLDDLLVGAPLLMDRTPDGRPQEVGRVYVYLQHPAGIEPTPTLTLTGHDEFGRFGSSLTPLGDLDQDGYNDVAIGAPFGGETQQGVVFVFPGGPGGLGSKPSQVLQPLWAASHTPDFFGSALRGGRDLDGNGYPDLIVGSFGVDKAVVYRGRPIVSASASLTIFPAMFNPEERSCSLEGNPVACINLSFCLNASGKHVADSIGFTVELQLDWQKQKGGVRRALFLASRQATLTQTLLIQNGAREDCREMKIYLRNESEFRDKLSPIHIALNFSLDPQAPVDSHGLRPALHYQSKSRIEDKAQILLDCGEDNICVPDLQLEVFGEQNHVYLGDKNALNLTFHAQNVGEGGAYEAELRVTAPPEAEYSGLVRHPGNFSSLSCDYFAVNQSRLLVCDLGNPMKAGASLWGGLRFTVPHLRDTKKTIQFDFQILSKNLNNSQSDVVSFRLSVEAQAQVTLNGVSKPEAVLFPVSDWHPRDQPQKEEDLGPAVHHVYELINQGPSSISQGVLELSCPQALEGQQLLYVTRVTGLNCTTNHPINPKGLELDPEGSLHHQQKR
Sequence (P08648 895-1049 limits assumed): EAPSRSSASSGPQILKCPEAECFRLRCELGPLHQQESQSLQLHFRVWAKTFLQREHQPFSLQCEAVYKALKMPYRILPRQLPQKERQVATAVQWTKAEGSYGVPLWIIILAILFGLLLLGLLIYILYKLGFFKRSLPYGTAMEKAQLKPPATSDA

For the molecule Cc1cc(C)c(S(=O)(=O)N[C@@H](CNC(=O)c2ccc(-c3cccc(CN=C(N)N)c3)s2)C(=O)O)c(C)c1 , what IC50 is on record?
0.02 µM

Now turn to the next molecule.
Quick one: IC50 of N=C(N)NCCCCC(=O)NCC(=O)NC(CC(=O)O)c1cccnc1 (configuration not stated) ?
70 µM

* * *

target: Integrin alpha-V/beta-1 (Homo sapiens, UniProt P05556+P06756); assay: Antagonist activity at alphavbeta1 integrin receptor (unknown origin) by cell-based ELISA
Sequence (P06756 31-889 limits assumed, one chain of several): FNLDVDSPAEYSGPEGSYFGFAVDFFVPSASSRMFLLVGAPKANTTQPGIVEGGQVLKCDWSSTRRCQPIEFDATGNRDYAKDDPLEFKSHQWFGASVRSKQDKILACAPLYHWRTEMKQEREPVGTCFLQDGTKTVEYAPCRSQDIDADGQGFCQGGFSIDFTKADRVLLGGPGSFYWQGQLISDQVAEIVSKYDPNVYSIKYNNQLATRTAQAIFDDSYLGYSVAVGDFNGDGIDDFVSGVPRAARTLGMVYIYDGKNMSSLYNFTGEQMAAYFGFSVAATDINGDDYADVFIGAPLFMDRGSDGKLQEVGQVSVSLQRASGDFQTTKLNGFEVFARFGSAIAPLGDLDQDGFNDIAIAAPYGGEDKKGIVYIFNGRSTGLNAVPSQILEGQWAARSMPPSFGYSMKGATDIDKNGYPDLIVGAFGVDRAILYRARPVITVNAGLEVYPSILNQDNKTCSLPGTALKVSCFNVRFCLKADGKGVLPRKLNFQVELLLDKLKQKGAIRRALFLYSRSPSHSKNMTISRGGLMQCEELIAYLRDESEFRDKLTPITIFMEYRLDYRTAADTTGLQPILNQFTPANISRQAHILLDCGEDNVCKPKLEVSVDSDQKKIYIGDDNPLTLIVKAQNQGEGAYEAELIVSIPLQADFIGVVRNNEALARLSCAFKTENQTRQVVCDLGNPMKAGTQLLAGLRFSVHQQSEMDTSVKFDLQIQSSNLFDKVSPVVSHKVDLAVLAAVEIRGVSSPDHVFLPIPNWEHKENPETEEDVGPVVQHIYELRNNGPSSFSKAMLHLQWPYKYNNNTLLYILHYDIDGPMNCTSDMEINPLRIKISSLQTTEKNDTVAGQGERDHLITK
Sequence (P06756 891-1048 limits assumed, one chain of several): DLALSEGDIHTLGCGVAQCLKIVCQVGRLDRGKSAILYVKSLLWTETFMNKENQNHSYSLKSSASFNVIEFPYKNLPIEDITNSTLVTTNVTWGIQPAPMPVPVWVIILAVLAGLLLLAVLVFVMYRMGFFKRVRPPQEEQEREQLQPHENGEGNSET
reportedMetric: IC50 (µM)
Numbers only, in µM.

Endpoint output: IC50 of N=C(N)NCCCCC(=O)NCC(=O)NC(CC(=O)O)c1cccnc1 (stereo unspecified) . Value?
0.317

* * *

target: Integrin alpha-IIb/beta-3 (Homo sapiens, UniProt P05106+P08514); assay: Antagonist activity at alpha2bbeta3 integrin receptor (unknown origin) by cell-free ELISA; format: protein-complex assay
Sequence (P05106 27-788 limits assumed): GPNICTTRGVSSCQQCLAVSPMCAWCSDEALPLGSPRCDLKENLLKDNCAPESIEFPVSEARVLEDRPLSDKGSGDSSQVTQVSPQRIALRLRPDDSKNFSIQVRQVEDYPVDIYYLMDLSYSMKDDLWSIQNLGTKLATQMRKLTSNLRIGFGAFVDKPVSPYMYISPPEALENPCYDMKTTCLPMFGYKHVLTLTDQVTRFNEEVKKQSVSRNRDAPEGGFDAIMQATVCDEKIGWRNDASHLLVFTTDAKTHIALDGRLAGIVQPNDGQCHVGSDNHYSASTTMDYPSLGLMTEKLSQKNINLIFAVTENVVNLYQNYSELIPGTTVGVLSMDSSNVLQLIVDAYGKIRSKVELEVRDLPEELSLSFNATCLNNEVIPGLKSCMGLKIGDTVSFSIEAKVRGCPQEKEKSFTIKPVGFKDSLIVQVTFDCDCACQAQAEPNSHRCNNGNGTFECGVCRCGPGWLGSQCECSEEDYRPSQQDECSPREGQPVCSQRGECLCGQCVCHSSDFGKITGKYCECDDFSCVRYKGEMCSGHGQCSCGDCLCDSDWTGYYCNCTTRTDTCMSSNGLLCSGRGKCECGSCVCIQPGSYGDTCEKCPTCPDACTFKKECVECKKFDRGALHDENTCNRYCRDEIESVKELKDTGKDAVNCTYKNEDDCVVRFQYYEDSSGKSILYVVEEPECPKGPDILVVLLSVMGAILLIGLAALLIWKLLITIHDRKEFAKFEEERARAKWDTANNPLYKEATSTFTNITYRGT
Sequence (P08514 32-887 limits assumed): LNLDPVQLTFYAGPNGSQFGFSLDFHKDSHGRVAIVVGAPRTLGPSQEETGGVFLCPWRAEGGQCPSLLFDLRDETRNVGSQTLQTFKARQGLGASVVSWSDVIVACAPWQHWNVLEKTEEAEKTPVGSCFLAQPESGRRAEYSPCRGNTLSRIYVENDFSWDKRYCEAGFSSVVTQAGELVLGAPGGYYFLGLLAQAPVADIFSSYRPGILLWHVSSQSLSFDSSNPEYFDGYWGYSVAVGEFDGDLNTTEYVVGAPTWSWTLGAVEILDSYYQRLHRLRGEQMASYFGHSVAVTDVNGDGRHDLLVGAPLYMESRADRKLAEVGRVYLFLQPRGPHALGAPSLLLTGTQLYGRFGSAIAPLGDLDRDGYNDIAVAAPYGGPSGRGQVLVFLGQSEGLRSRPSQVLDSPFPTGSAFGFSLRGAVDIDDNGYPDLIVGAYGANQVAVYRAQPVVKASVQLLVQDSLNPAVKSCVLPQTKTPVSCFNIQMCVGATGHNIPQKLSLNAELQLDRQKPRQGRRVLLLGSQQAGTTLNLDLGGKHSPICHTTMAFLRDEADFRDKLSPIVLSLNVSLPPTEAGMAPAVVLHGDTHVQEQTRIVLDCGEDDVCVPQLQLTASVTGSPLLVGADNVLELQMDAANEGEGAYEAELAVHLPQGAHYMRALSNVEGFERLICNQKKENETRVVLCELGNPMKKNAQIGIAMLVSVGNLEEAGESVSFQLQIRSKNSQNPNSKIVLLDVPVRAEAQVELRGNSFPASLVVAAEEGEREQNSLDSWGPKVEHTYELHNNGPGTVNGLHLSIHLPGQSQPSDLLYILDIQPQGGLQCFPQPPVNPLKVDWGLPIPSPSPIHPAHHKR
Sequence (P08514 891-1039 limits assumed): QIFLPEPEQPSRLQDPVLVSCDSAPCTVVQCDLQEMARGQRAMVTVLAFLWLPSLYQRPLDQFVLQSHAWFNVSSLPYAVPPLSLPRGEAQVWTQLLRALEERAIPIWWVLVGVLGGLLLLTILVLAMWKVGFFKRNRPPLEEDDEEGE
Please note: IC50 exactly at 70 nM is Condition not met. Only values below 70 nM get Condition met.

Solved entries:
For this molecule, is IC50 lower than 70 nM? N=C(N)NCc1cccc(-c2ccc(C(=O)NC[C@H](NS(=O)(=O)c3ccccc3)C(=O)O)s2)c1
Condition met

Decide: IC50 of Cc1cc(C)c(S(=O)(=O)N[C@@H](CNC(=O)c2ccc(-c3cccc(CN=C(N)N)c3)s2)C(=O)O)c(C)c1 strictly below 70 nM?
Condition met

---
Below 70 nM on IC50? Entry N=C(N)NCCC[C@H](NC(=O)OCc1ccccc1)[C@H]1CC[C@H](C(=O)NC[C@H](NC(=O)OCc2ccccc2)C(=O)O)O1
Condition met

I wonder whether CC(C)(C)c1cc(Br)cc([C@H](CC(=O)O)NC(=O)CNC(=O)c2cc(O)cc(NC3=NCC(O)CN3)c2)c1 (stereo partly drawn) has IC50 below 70 nM. Can you tell?
Condition not met

Does the reported IC50 of O=C(O)C[C@H](NC(=O)CNC(=O)c1cncc(N=C2NCC(O)CN2)c1)c1cc(Cl)cc(Br)c1O (stereo partly drawn) stay below 70 nM?
Condition not met

Field: below-cutoff. Rule: recorded IC50 strictly less than 70 nM. Subject: N=C(N)NCCCCC(=O)NCC(=O)NC(CC(=O)O)c1cccnc1 (stereo not drawn)
Condition met

Item N=C(N)NCCC[C@@H]1NC(=O)CNC(=O)[C@H](CC(=O)O)N[C@H](C(=O)O)C[S+]([O-])CC(=O)N[C@H](Cc2ccc(O)cc2)C1=O (stereo partly drawn) : IC50 beneath 70 nM, strictly?
Condition met

For O=C(O)C[C@H](NC(=O)CNC(=O)c1cc(O)cc(NC2=NCC(O)CN2)c1)c1cc(Cl)cc(Br)c1O (stereo partly drawn) , is the recorded IC50 below the cut-off of 70 nM?
Condition not met

* * *

target: Integrin alpha-V/beta-6 (Homo sapiens, UniProt P06756+P18564); assay: Antagonist activity at alphavbeta6 integrin receptor in human HT29 cells after 4 hrs using p-nitrophenyl phosphate by colorimetry; assay type: cell-based, HT-29
reportedMetric: pIC50
Give bare numbers, as −log10 of the molar value.

Any idea what its pIC50 is? The compound is O=C(O)C[C@H](NC(=O)CNC(=O)c1cc(O)cc(NC2=NCC(O)CN2)c1)c1cc(Cl)cc(Br)c1O (some centres not stated)
7.93

Continuing:
// lookup pIC50 for O=C(O)C[C@H](NC(=O)CNC(=O)c1cncc(N=C2NCC(O)CN2)c1)c1cc(Cl)cc(Br)c1O (some centres not stated)
8.95
